# experimental.system: CB1 receptor (Rattus norvegicus, UniProt P20272)
# Construct: membranes were prepared from rat forebrain membranes; from tissue; host or cells: rat forebrain membranes
# Sequence (P20272 whole entry): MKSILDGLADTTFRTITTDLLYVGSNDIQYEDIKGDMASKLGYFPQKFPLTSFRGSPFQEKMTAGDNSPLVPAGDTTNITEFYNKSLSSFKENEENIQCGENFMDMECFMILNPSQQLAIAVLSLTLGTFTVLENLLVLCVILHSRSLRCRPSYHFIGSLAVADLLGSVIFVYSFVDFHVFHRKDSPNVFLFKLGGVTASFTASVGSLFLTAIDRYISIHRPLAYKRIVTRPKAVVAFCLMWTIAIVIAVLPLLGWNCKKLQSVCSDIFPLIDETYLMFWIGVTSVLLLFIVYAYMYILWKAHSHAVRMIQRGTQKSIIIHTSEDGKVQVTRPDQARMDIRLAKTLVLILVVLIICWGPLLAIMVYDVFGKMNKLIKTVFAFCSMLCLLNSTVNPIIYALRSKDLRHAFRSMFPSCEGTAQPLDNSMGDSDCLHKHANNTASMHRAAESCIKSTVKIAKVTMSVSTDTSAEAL
# assay.notes: CB1 receptor binding, rat forebrain membranes, [3H]CP-55,940 displacement
# study.conditions: Table 2, 0.8 nM [3H]CP-55,940, read-out: Ki nM CB1
# Ki values compiled below
Number plus unit, in that order.

Worked examples follow.
CN1CCCCC1Cn1cc(C(=O)c2cnc3ccccc3c2)c2ccccc21 (centres unmarked) [2-36] ... 133 nM
CN1CCCCC1Cn1cc(C(=O)c2ccccc2I)c2ccccc21 (racemic) [2-34(R,S)] ... 2.89 nM
CN1CCCCC1Cn1cc(C(=O)c2ccccn2)c2ccccc21 (centres unmarked) [2-42] ... 421 nM
CN1CCCCC1Cn1cc(C(=O)c2cc3ccccc3cn2)c2ccccc21 (centres unmarked) [2-40] ... 28.6 nM
CN1CCCCC1Cn1cc(C(=O)c2cccc[n+]2[O-])c2ccccc21 (centres unmarked) [2-43] ... 8820 nM
CN1CCOCC1Cn1cc(C(=O)c2cc([N+](=O)[O-])ccc2I)c2ccccc21 (centres unmarked) [2-29] ... 848 nM
CN1CCOCC1Cn1cc(C(=O)c2cccc3ccccc23)c2ccccc21 (centres unmarked) [2-31] ... 5.7 nM
CN1CCCCC1Cn1cc(C(=O)c2cnccn2)c2ccccc21 (centres unmarked) [2-37] ... 3540 nM
CN1CCCCC1Cn1cc(C(=O)c2cc(C#N)ccc2I)c2ccccc21 (centres unmarked) [2-45] ... 418 nM
CN1CCCCC1Cn1cc(C(=O)c2cc(C(N)=O)ccc2I)c2ccccc21 (centres unmarked) [2-48] ... 390 nM

Lab note: need Ki with CB1 receptor (Rattus norvegicus, UniProt P20272) for entry O=C(c1cccc([N+](=O)[O-])c1I)c1cn(CC2COCCN2Cc2ccccc2)c2ccccc12 (centres unmarked) [2-27] , please look it up.
2380 nM

For the record CN1CCCCC1Cn1cc(C(=O)c2cc(C#N)ccc2I)c2ccccc21 (centres unmarked) [2-46] , what value of Ki is listed for CB1 receptor (Rattus norvegicus, UniProt P20272)?
339 nM

Please provide the recorded Ki for CN1CCCCC1Cn1cc(C(=O)c2ccnc3ccccc23)c2ccccc21 (centres unmarked) [2-38] , tested on CB1 receptor (Rattus norvegicus, UniProt P20272).
719 nM

# returns recorded Ki (system: CB1 receptor (Rattus norvegicus, UniProt P20272)) for CN1CCCCC1Cn1cc(C(=O)c2cccs2)c2ccccc21 (centres unmarked) [2-39]
41.4 nM

Report Ki for CN1CCOCC1Cn1cc(C(=O)c2cccc([N+](=O)[O-])c2I)c2ccccc21 (centres unmarked) [2-30] tested on CB1 receptor (Rattus norvegicus, UniProt P20272).
464 nM

----------
# experimental.system: CB2 receptor (Mus musculus)
# Construct: membranes were prepared from frozen mouse spleen; from tissue; host or cells: frozen mouse spleen membranes
# Sequence (P47936 whole entry): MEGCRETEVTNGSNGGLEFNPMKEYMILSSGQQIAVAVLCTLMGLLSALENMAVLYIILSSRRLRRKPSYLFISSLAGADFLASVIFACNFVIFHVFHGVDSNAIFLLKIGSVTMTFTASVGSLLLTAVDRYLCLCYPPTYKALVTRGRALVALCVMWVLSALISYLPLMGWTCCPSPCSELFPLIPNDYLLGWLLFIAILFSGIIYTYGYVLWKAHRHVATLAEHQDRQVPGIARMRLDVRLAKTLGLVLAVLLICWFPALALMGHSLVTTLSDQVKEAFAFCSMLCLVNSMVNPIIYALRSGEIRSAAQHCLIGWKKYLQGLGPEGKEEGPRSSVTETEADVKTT
# assay.notes: CB2 receptor binding, mouse spleen membranes, [3H]CP-55,940 displacement
# study.conditions: Ki nM CB2, Table 2; mouse spleen membranes
Below, each entry is listed alongside its reported Ki.
Numbers only; they are read as nM.

Query the reported Ki for CB2 receptor (Mus musculus); item: CN1CCCC[C@@H]1Cn1cc(C(=O)c2cc([N+](=O)[O-])ccc2I)c2ccccc21 [2-32(R)]
1.42

For CB2 receptor (Mus musculus), provide Ki of CN1CCCCC1Cn1cc(C(=O)C23CC4CC(CC(C4)C2)C3)c2ccccc21 (centres unmarked) [2-33] please.
4.8
